# Tested on: OVCAR-5 ovarian
# TEST SUMMARY: NCI tumour cell line growth inhibition, 48 h
QUANTITY: GI50

molecule=C#CCOc1ccc2ncnc(Nc3ccc(NC(=O)CCl)cc3)c2c1 quantity=GI50 endpoint_result="16800 nM"
molecule="CCCCN(CCCC)CC(C)(C)C(O)c1ccc(OC)c2ccccc12 (stereo not drawn)" quantity=GI50 endpoint_result="2400 nM"

In: Entry under review: CN(C)CCOC1(Cc2ccc(Cl)cc2Cl)CCC(C(C)(C)C)CC1 (stereo not drawn) . Reported GI50?
Out: 2090 nM

###

In this section we review reported TGI values for a set of compounds.
# Test system: NCI-H226 lung
# TEST SUMMARY: NCI tumour cell line growth inhibition, 48 h

compound=CC1=NN2C(=O)CC(=O)N=C2S1 endpoint_result="> 100 µM"
compound=Cn1cnc([N+](=O)[O-])c1SCC(=O)O endpoint_result="> 100 µM"
compound="CC(=O)OCC(OC(C)=O)C(OC(C)=O)C(OC(C)=O)C(=O)CNn1c(-c2ccccc2)nc2ccc(Br)cc2c1=O (stereo not given)" endpoint_result="> 100 µM"
compound=C/C(=N\NC(=O)/C(C#N)=C\c1ccc(N(CCC#N)CCC#N)cc1)c1ccccc1 endpoint_result="> 10 µM"

In: Entry under review: COC(=O)C1=C(c2cc(OC)c(OC)c(OC)c2)OC(c2cc(OC)c(OC)c(OC)c2)C1COC(C)=O (stereo not given) . Reported TGI?
Out: > 100 µM

###

# Tested on: MCF7 breast
# TEST SUMMARY: NCI tumour cell line growth inhibition, 48 h
QUANTITY: TGI

Solved cases (2 shown):
compound=CCCCCC(=O)OCC(=O)O[C@@H]1C[C@]2(C(C)C)O[C@@]1(C)[C@@H]1CC[C@@H](C)[C@H]1[C@@H]2OC(=O)/C=C/c1ccccc1 assay_system="MCF7 breast" endpoint_result="> 100 µM"
compound="COc1ccc(NC(=O)c2sc3nc(C)c(C(O)c4ccc(OC)cc4)cc3c2N)cc1 (stereo unspecified)" assay_system="MCF7 breast" endpoint_result="> 50 µM"

In: Entry under review: C/C(=N\NC(=O)/C(C#N)=C\c1ccc(N(CCC#N)CCC#N)cc1)c1ccccc1 . Reported TGI?
Out: > 10 µM

In: Now consider C=CC[Se]C(=O)Cc1c(C)n(C(=O)c2ccc(Cl)cc2)c2ccc(OC)cc12 and answer again.
Out: 4.17 µM

In: Now consider Cc1ccc(C)c(/C(=N\N=C(N)N)C2CC2)c1 and answer again.
Out: > 100 µM

In: Now consider CCCCCCCCCCCCOC1C(C(COC2OC(C(O)CN3CCCCC3)C3OC(C)(C)OC23)NC(=O)Nc2ccccc2)OC2OC(C)(C)OC21 (stereo unspecified) and answer again.
Out: 10.6 µM

In: Now consider Nc1nc(Cl)cc(NCC2(CO)CCC2)n1 and answer again.
Out: > 100 µM

In: Now consider Cc1ccc(S(=O)(=O)[N-]C2C(=O)c3ccccc3C(=O)C2[n+]2cccc(C(N)=O)c2)cc1 (stereo unspecified) and answer again.
Out: > 100 µM

In: Now consider Cc1ccc(S(=O)(=O)NC(=O)NCC(=O)NCC(=O)O)cc1 and answer again.
Out: > 100 µM

In: Now consider O=C(O)C(Br)C(Br)c1ccccc1[N+](=O)[O-] (stereo unspecified) and answer again.
Out: > 100 µM

In: Now consider CN(C)CCNC(=O)c1cccc2nc3c4ccccc4c4ccccc4c3nc12 and answer again.
Out: 3.47 µM

In: Now consider COc1ccc(/C(Cl)=C(\C=O)c2ccc(OC)c(OC)c2)cc1OC and answer again.
Out: > 100 µM

In: Now consider CCCCSC1=N/C(=C\c2ccco2)C(=O)N1 and answer again.
Out: > 100 µM

In: Now consider O=C(c1cc(Br)ccc1O)c1cc(Br)ccc1O and answer again.
Out: 31.3 µM

In: Now consider O=c1cc(NCC2CCCCC2)[nH]c(=O)[nH]1 and answer again.
Out: > 100 µM

In: Now consider CCOc1ccc(N/C(=C(/C(Cl)=C(/Cl)NCCO)[N+](=O)[O-])n2nnc3ccccc32)cc1 and answer again.
Out: 38.8 µM

In: Now consider O=C(N=Nc1c(O)[nH]c2c(Cl)cc(Cl)cc12)c1ccncc1 and answer again.
Out: > 100 µM

In: Now consider CCCC[P+](c1ccccc1)(c1ccccc1)c1ccccc1 and answer again.
Out: > 100 µM

In: Now consider Cc1cc(NC(=O)C(=O)Cc2cnc3ccccc3n2)c(S(=O)(=O)O)cc1Cl and answer again.
Out: > 100 µM

In: Now consider NC1=CC(C(=O)c2ccncc2)c2nc3ccccc3nc21 (stereo unspecified) and answer again.
Out: > 100 µM

In: Now consider COC1C=C(NCC2(CO)CCC2)NC(N)=N1 (stereo unspecified) and answer again.
Out: > 100 µM

All values here come from PubChem BioAssay (NCI).
